procedureSummary: Solubility of free carbamathione in buffer by portion-wise addition of solid
Type: physicochemical
measurementConditions: simulated gastric fluid, thermodynamic from solid, pH 1.2, 25° C., read-out: Solubility TNX1001
measuredEndpoint: solubility

Q. I am curious: what solubility value has been reported for CCN(CC)C(=O)SCC(NC(=O)CCC(N)C(=O)O)C(=O)NCC(=O)O (stereo not shown) ?
A. 25 to 33 mg/mL
